Tested on: Staphylococcus aureus VISA (code 3798)
condition: S. aureus VISA code 3798; 0.02% albumine bovine serum; read after 24 h
readoutKind: Minimal Inhibitory Concentrations (µg/mL)
// note: answer is a bare numeric in µg/mL

C=C1NC(=O)[C@H](C(C)C)NC(=O)[C@H](NC(=O)/C(=C/C)NC(=O)[C@@H](N)[C@@H](C)CC)CSC[C@@H](C(=O)N[C@H]2C(=O)N3CCC[C@H]3C(=O)NCC(=O)N[C@H](C(=O)N[C@H](C(=O)N[C@@H]3CSC[C@@H]4NC(=O)CNC(=O)[C@@H](CSC[C@@H]5NC(=O)[C@H](Cc6c[nH]cn6)NC(=O)[C@@H](CSC[C@@H](C(=O)NCCN(C)C)NC5=O)NC4=O)NC(=O)CNC(=O)CNC(=O)CNC(=O)[C@H](CCC(=O)NCCN(C)C)NC3=O)[C@@H](C)O)CS[C@H]2C)NC(=O)[C@H](Cc2c[nH]c3ccccc23)NC1=O yielded Minimal Inhibitory Concentrations of 0.50

* * *

Please provide measured Minimal Inhibitory Concentrations for the entries that follow.
Test system: E. faecalisVanA (code 560)
condition: E. faecalis VanA code 560; 0.02% albumine bovine serum; read after 24 h
Write the numeric value and append its unit.

C=C1NC(=O)[C@H](C(C)C)NC(=O)[C@H](NC(=O)/C(=C/C)NC(=O)[C@@H](N)[C@@H](C)CC)CSC[C@@H](C(=O)N[C@H]2C(=O)N3CCC[C@H]3C(=O)NCC(=O)N[C@H](C(=O)N[C@H](C(=O)N[C@@H]3CSC[C@@H]4NC(=O)CNC(=O)[C@@H](CSC[C@@H]5NC(=O)[C@H](Cc6c[nH]cn6)NC(=O)[C@@H](CSC[C@@H](C(=O)NCCN(C)C)NC5=O)NC4=O)NC(=O)CNC(=O)CNC(=O)CNC(=O)[C@H](CCC(=O)NCCN(C)C)NC3=O)[C@@H](C)O)CS[C@H]2C)NC(=O)[C@H](Cc2c[nH]c3ccccc23)NC1=O yielded Minimal Inhibitory Concentrations of 2 µg/mL

C=C1NC(=O)[C@H](C(C)C)NC(=O)[C@H](NC(=O)/C(=C/C)NC(=O)[C@@H](N)[C@@H](C)CC)CSC[C@@H](C(=O)N[C@H]2C(=O)N3CCC[C@H]3C(=O)NCC(=O)N[C@H](C(=O)N[C@H](C(=O)N[C@@H]3CSC[C@@H]4NC(=O)CNC(=O)[C@@H](CSC[C@@H]5NC(=O)[C@H](Cc6c[nH]cn6)NC(=O)[C@@H](CSC[C@@H](C(=O)NCCCCN(C)C)NC5=O)NC4=O)NC(=O)CNC(=O)CNC(=O)CNC(=O)[C@H](CCC(=O)NCCCCN(C)C)NC3=O)[C@@H](C)O)CS[C@H]2C)NC(=O)[C@H](Cc2c[nH]c3ccccc23)NC1=O yielded Minimal Inhibitory Concentrations of 4 µg/mL

C=C1NC(=O)[C@H](C(C)C)NC(=O)[C@H](NC(=O)/C(=C/C)NC(=O)[C@@H](N)[C@@H](C)CC)CSC[C@@H](C(=O)N[C@H]2C(=O)N3CCC[C@H]3C(=O)NCC(=O)N[C@H](C(=O)N[C@H](C(=O)N[C@@H]3CSC[C@@H]4NC(=O)CNC(=O)[C@@H](CSC[C@@H]5NC(=O)[C@H](Cc6c[nH]cn6)NC(=O)[C@@H](CSC[C@@H](C(=O)N(C)C)NC5=O)NC4=O)NC(=O)CNC(=O)CNC(=O)CNC(=O)[C@H](CCC(=O)N(C)C)NC3=O)[C@@H](C)O)CS[C@H]2C)NC(=O)[C@H](Cc2c[nH]c3ccccc23)NC1=O yielded Minimal Inhibitory Concentrations of 16 µg/mL

C=CCNC(=O)CC[C@@H]1NC(=O)[C@H](NC(=O)[C@@H](NC(=O)[C@@H]2CS[C@@H](C)[C@@H](NC(=O)[C@@H]3CSC[C@@H](NC(=O)/C(=C/C)NC(=O)[C@@H](N)[C@@H](C)CC)C(=O)N[C@@H](C(C)C)C(=O)NC(=C)C(=O)N[C@@H](Cc4c[nH]c5ccccc45)C(=O)N3)C(=O)N3CCC[C@H]3C(=O)NCC(=O)N2)[C@@H](C)O)CSC[C@@H]2NC(=O)CNC(=O)[C@@H](CSC[C@@H]3NC(=O)[C@H](Cc4c[nH]cn4)NC(=O)[C@@H](CSC[C@@H](C(=O)NCC=C)NC3=O)NC2=O)NC(=O)CNC(=O)CNC(=O)CNC1=O yielded Minimal Inhibitory Concentrations of 8 µg/mL

All figures here come from patent US20120053115A1.
